Biological target: Kv3.1 (Homo sapiens, UniProt P48547)
Construct: expressed in transfected cells
Sequence (P48547 whole entry): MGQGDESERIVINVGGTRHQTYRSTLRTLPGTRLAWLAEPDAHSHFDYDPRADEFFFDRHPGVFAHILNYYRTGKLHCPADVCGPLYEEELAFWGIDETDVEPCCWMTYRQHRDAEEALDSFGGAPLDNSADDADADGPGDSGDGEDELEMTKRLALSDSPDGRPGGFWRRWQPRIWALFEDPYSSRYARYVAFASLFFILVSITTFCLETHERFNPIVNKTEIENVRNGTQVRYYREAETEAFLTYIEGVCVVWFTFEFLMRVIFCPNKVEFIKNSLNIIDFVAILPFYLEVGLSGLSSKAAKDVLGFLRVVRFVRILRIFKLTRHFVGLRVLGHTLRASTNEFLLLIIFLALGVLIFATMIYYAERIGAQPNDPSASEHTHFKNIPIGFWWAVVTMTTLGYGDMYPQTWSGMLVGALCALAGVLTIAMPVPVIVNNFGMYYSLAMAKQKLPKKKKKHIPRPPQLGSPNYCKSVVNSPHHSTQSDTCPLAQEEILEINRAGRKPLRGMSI
Test: Kv3.1 automated patch clamp (Qube) cellular electrophysiology assay
Type: cell-based
Method: In vitro, high-throughput cellular electrophysiology was employed to detect voltage-dependence of compounds in single concentration screening and IC50 determination for library and medicinal chemistry profiling compounds in 384 well plates. […] Currents through activated channels were measured directly by APC by employing depolarization voltage steps. […] Selectivity was assessed against Kv3.2, Kv3.3, and Kv3.4 overexpressing cell lines using similar methods.
Documented EC50 across a set of molecules
Readout: EC50

>  <Mol smiles>
COc1cc(Oc2ccc(-n3c(=O)[nH]c4ccccc43)cn2)ccc1C

>  <Readout>
EC50

>  <Reported result>
5.2 µM

$$$$
>  <Mol smiles>
COc1cc(Oc2ccc(-n3c(=O)[nH]c4ccncc43)cn2)ccc1C

>  <Readout>
EC50

>  <Reported result>
21 µM

$$$$
>  <Mol smiles>
N#Cc1ccc(Oc2ccc(-n3c(=O)[nH]c4cccnc43)cn2)c(C(F)(F)F)c1

>  <Readout>
EC50

>  <Reported result>
6.6 µM

$$$$
>  <Mol smiles>
CCc1cc(Oc2ccc(-n3c(=O)[nH]c4cccnc43)cn2)ccc1C#N

>  <Readout>
EC50

>  <Reported result>
4.1 µM

$$$$
>  <Mol smiles>
COc1cc(Oc2ccc(-n3c(=O)[nH]c4cccnc43)cn2)ccc1C

>  <Readout>
EC50

>  <Reported result>
3.4 µM

$$$$
>  <Mol smiles>
O=c1[nH]c2ccccc2n1-c1ccc(Oc2cccc3c2C2(CC2)CO3)nc1

>  <Readout>
EC50

>  <Reported result>
2.5 µM

$$$$
>  <Mol smiles>
COc1cc(Oc2ncc(-n3c(=O)[nH]c4cccnc43)cc2C)ccc1C

>  <Readout>
EC50

>  <Reported result>
4 µM

$$$$
>  <Mol smiles>
CC(C)(C)c1cc(C#N)ccc1Oc1ccc(-n2c(=O)[nH]c3ccccc32)cn1

>  <Readout>
EC50

>  <Reported result>
12.2 µM

$$$$
>  <Mol smiles>
COc1cc(C)ccc1Oc1ccc(-n2c(=O)[nH]c3cccnc32)cn1

>  <Readout>
EC50

>  <Reported result>
5 µM

$$$$
>  <Mol smiles>
CC(C)(C)c1cc(C#N)ccc1Oc1ccc(-n2c(=O)[nH]c3cccnc32)cc1F

>  <Readout>
EC50

>  <Reported result>
12.7 µM

$$$$
>  <Mol smiles>
CC(C)(C)c1cc(C#N)ccc1Oc1ccc(-n2c(=O)[nH]c3cnccc32)cn1

>  <Readout>
EC50

>  <Reported result>
4.7 µM

$$$$
>  <Mol smiles>
O=c1[nH]c2cccnc2n1-c1ccc(Oc2cccc3c2C2(CC2)CO3)nc1

>  <Readout>
EC50

>  <Reported result>
0.3 µM

$$$$
>  <Mol smiles>
CC(C)c1cc(Oc2ccc(-n3c(=O)[nH]c4cccnc43)cn2)ccc1C#N

>  <Readout>
EC50

>  <Reported result>
2.7 µM

$$$$
>  <Mol smiles>
COc1cc(Oc2ccc(-n3c(=O)[nH]c4cc(C(F)(F)F)cnc43)cn2)ccc1C

>  <Readout>
EC50

>  <Reported result>
5.7 µM

$$$$
>  <Mol smiles>
COc1cc(O[C@H]2C[C@H](n3c(=O)[nH]c4cnccc43)C2)ccc1C

>  <Readout>
EC50

>  <Reported result>
3.6 µM

$$$$
>  <Mol smiles>
CC(C)(C)c1cc(C#N)ccc1Oc1ccc(-n2c(=O)[nH]c3cc(F)cnc32)cn1

>  <Readout>
EC50

>  <Reported result>
5.5 µM

$$$$
>  <Mol smiles>
Cc1ccc(Oc2ccc(-n3c(=O)[nH]c4cccnc43)cn2)c(F)c1

>  <Readout>
EC50

>  <Reported result>
4.3 µM

$$$$
>  <Mol smiles>
COc1cc(Oc2ccc(-n3c(=O)[nH]c4cncnc43)cn2)ccc1C

>  <Readout>
EC50

>  <Reported result>
7.4 µM

$$$$
